Where do these numbers come from? They come from patent US5104866A.

Measured Maximum concentration of this sample dissolved in water, listed per entry.
Test: Dissolution test: velocity of dissolution of test samples after addition of distilled water at ambient temperature
Type: physicochemical
Details: reference sample without carbonic acid salt
Endpoint Label: Maximum concentration of this sample dissolved in water

1. CO/N=C(\C(=O)NC1C(=O)N2C(C(=O)[O-])=C(C[n+]3ccccc3)CSC12)c1nsc(N)n1 (stereo not shown) [Reference Sample (4)]	10 % (w/v)
2. C=CCO/N=C(\C(=O)NC1C(=O)N2C(C(=O)[O-])=C(C[n+]3ccccc3)CSC12)c1nsc(N)n1 (stereo not shown) [Reference Sample (2)]	8.28 % (w/v)
3. C=CCO/N=C(\C(=O)NC1C(=O)N2C(C(=O)[O-])=C(C[n+]3ccccc3)CSC12)c1nsc(N)n1 (stereo not shown) [Reference Sample (1)]	4.07 % (w/v)
4. CO/N=C(\C(=O)NC1C(=O)N2C(C(=O)[O-])=C(C[n+]3ccccc3)CSC12)c1nsc(N)n1 (stereo not shown) [Reference Sample (3)]	2 % (w/v)
